# assay target: full-length beta-catenin (Axin site) (Homo sapiens)
# Construct: 15 nM full-length beta-catenin, 20 nM FITC labeled peptide in buffer
# Sequence (P35222 1-781): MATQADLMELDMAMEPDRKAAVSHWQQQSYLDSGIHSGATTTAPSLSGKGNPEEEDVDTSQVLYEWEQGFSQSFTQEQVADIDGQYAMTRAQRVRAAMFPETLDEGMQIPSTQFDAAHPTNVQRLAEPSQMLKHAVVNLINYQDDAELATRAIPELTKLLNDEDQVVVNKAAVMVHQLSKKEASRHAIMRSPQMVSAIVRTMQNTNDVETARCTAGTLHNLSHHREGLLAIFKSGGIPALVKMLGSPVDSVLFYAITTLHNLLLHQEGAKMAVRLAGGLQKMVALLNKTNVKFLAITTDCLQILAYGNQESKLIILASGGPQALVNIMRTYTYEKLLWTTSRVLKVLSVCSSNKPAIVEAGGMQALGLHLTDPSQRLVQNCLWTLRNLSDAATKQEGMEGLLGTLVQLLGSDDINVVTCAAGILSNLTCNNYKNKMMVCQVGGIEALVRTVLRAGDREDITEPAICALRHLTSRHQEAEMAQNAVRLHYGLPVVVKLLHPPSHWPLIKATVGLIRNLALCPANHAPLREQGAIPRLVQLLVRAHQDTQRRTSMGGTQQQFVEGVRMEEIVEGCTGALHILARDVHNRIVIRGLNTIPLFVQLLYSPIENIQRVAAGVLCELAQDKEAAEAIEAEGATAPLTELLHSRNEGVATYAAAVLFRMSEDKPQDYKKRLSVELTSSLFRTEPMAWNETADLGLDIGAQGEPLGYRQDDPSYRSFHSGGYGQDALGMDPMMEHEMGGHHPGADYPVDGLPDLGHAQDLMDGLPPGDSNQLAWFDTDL
# test protocol: Competition fluorescence polarization assay (Axin site probe)
# Type: binding
# particulars: competition with FITC labeled Axin-site probe, 15 nM full-length beta-catenin; read-out: FP EC50
readout: EC50 (nM)
Please state the figure in nM; there is no need to write the unit.

According to the records, this molecule CC[C@H](C)[C@@H]1NC(=O)C2(NC(=O)[C@H](CCC(N)=O)NC(=O)[C@@H]3CCCN3C(C)=O)CN(CC=CCCCC[C@](C)(C(=O)N[C@@H](Cc3c[nH]cn3)C(=O)N[C@H](C(=O)N[C@@H](CCCNC(=N)N)C(=O)N[C@@H](CCCNC(=N)N)C(=O)N[C@H](C(=O)N[C@@H](Cc3c[nH]c4ccccc34)C(=O)N[C@@H](CCCNC(=N)N)C(N)=O)C(C)C)C(C)C)NC(=O)[C@H](CC(=O)O)NC(=O)[C@H](CC(C)C)NC1=O)C2 (single isomer, unassigned) displays EC50 of 580

Value source: patent US11198713B2
